# ASSAY_INFO: NCI Yeast Anticancer Drug Screen. Data for the bub3 strain (AID 167)
# MEASUREMENT_PARAMETERS: S. cerevisiae bub3 mutant strain, at 50.0 µM (retest, dose inferred, filed as 5.0), hits give high values
About 79,000 compounds went through this panel and 15% of them were active in at least one assay; those are over-represented in the sample as a whole.
VALUE_KIND: growth inhibition (%)
Report only the number, with the unit % understood.

1) CC(=O)[O][Bi]([c]1ccccc1)[c]1ccccc1    96
2) COC(=O)c1ccc(CCC2=CC(=O)C(Br)=CC2=O)cc1    6
3) Cc1cc(CO)c(O)c(CNCc2cc(C)cc(CO)c2O)c1    52
4) CC(=O)N/N=C/C(C)(C)C(C)(C)/C=N/NC(C)=O    16
5) COc1ccccc1C(=O)OCC1CCCN2CCCCC12 (configuration not stated)    91

Req: Reported growth inhibition, compound `CCN(CC)[P+](c1ccccc1O)(N(CC)CC)N(CC)CC` : ____
Resp: 98

Req: What value of measured growth inhibition is listed for N#CC(C(=O)Nc1ccccc1)C1=C(Cl)C(=O)c2ccccc2C1=O (configuration not stated) ?
Resp: 98
